Provide the recorded GI50 for the entries that follow.
System: UACC-257 melanoma
Assay: NCI tumour cell line growth inhibition, 48 h

• COc1cc(/C=C/C(=O)c2ccc(Nc3nc(Nc4ccccc4)nc(Nc4ccc(Cl)cc4)n3)cc2)cc(OC)c1OC = > 32.5 µM
• Brc1ccc(Br)nn1 = 1.72 µM
• O=[N+]([O-])c1ccc(-c2ccccc2)c([As](=O)(O)O)c1 = 21.7 µM
• COc1ccc(-n2sc(=O)n(Cc3ccc(COC(=O)C(C)c4ccc(CC(C)C)cc4)cc3)c2=O)cc1 (stereo not given) = 2.02 µM

Okay, now this compound:
Input `Cc1ccc(-c2cc(/C=N/O)on2)cc1` , output reported GI50. 67.5 µM

Where do these numbers come from? They come from PubChem BioAssay (NCI).
